Catalogue of cytotoxicity at 70.5 h readings, one per entry.
- assay_comment: Human HepG2 cell viability assay in 384 well format
- Format: toxicity, cell-based
- Set-up: dose 125 nL, time 70.5 hour; concentration not given beside the values
- condition_label: HepG2 cells, read-out: Inhibition

molecule: CCC[C@@H]1CN(Cc2ccccc2C#N)C[C@H]1NC(C)=O
cytotoxicity at 70.5 h: -1.98%
//
molecule: CC(c1nc(C2CC2)no1)N1CCN(CCN2CCCC2=O)CC1 (stereo not drawn)
cytotoxicity at 70.5 h: -0.249%
//
molecule: CC(c1ccccn1)N(C)Cc1cccc(C(=O)Nc2nccn2C)c1 (stereo not drawn)
cytotoxicity at 70.5 h: 8.36%

====

- assay_comment: Human HepG2 cell viability assay in 384 well format
- Format: toxicity, cell-based
- Design: dose 125 nL, time 70.5 hour; concentration not given beside the values
- condition_label: HepG2 cells, read-out: Inhibition

molecule: O=C(c1ccc[nH]1)N1C[C@H](OCc2cccnc2)[C@H]2COC[C@H]21
cytotoxicity at 70.5 h: 5.01%
--
molecule: CCCc1nc(NCCc2ccccc2)c2c(n1)c(C)nn2CC
cytotoxicity at 70.5 h: -16.2%
--
molecule: CN1CCOC(CNCc2coc(-c3ccc(Cl)cc3)n2)C1 (stereo unspecified)
cytotoxicity at 70.5 h: -2.49%
--
molecule: Cc1nc(CN(CCS(C)(=O)=O)C(C)C)no1
cytotoxicity at 70.5 h: -5.83%
--
molecule: COc1cccc(OCC(=O)NS(=O)(=O)c2ccc(Br)s2)c1
cytotoxicity at 70.5 h: 0.256%
--
molecule: CCn1ccnc1CN1CCCN(C(=O)COC2CCCCC2)CC1
cytotoxicity at 70.5 h: -3.09%
--
molecule: Cc1nc(CN2CC(Cc3ccccc3)CC2=O)no1 (stereo unspecified)
cytotoxicity at 70.5 h: -17.4%
--
molecule: CCOc1ccnc(N2CCCN(c3nc(C4CC4)ns3)CC2)n1
cytotoxicity at 70.5 h: 4.37%
--
molecule: O=C1O[C@@H]2CN(Cc3cccnc3)C[C@@H]2N1CCCN1CCOCC1
cytotoxicity at 70.5 h: -1.95%
--
molecule: CCC1c2ccccc2CCN1C(=O)c1ccnc(C(=O)OC)c1 (stereo unspecified)
cytotoxicity at 70.5 h: -1.37%
--
molecule: Cc1cnccc1N1CCCN(C(=O)CCCn2ccnc2C)CC1
cytotoxicity at 70.5 h: -6.13%
--
molecule: CS(=O)(=O)N[C@H]1COC[C@@H]2CN(Cc3ccco3)C[C@@H]21
cytotoxicity at 70.5 h: -5.39%
--
molecule: c1c(CN2CCCCC2)nc2n1CCNC2
cytotoxicity at 70.5 h: 8.55%
--
molecule: Cc1noc(NC(=O)c2ccc(C#N)cc2)n1
cytotoxicity at 70.5 h: -7.88%
--
molecule: Cc1ccc(C(CNCc2ccc(C#N)cc2)N2CCOCC2)s1 (stereo unspecified)
cytotoxicity at 70.5 h: -3.96%
--
molecule: O=C(NCC1(N2CCOCC2)CCSC1)Nc1ccccn1 (stereo unspecified)
cytotoxicity at 70.5 h: -9.14%
--
molecule: CNc1snc(C)c1C(=O)N1CCCC(n2ccnc2)C1 (stereo unspecified)
cytotoxicity at 70.5 h: -9.44%
--
molecule: O=C(Nc1ccc(F)cc1F)N(CCC(F)(F)F)C[C@H](O)CO
cytotoxicity at 70.5 h: -12.9%
--
molecule: Cc1cc(C)n(CC2CN(CC(=O)NCc3cccs3)CCO2)n1 (stereo unspecified)
cytotoxicity at 70.5 h: 13.4%
--
molecule: CSCCCN1CC[C@@]2(O)CCN(c3ncccn3)C[C@H]2C1
cytotoxicity at 70.5 h: -2.32%
--
molecule: CC(C)Oc1cc(N2CCN(Cc3ccsc3)C(CCO)C2)nc(N)n1 (stereo unspecified)
cytotoxicity at 70.5 h: -17%
--
molecule: Cn1cc(CN2CCC3(CC2)NC(=O)CC3c2ccncc2)cn1 (stereo unspecified)
cytotoxicity at 70.5 h: 12.2%
--
molecule: CCS(=O)(=O)N1Cc2ccccc2CC1C(=O)OCc1cc(C)no1 (stereo unspecified)
cytotoxicity at 70.5 h: -7.63%
--
molecule: CC(NC(=O)N(C)C1CC1)c1ccc(Oc2cccnc2)c(F)c1 (stereo unspecified)
cytotoxicity at 70.5 h: -8.76%
--
molecule: CS(=O)(=O)c1ccc(CNC(=O)N2CCC(C(N)=O)CC2)cc1
cytotoxicity at 70.5 h: -2.35%
--
molecule: Cc1nc(C)n(C2CCCN(C(=O)c3ncoc3C(C)C)C2)n1 (stereo unspecified)
cytotoxicity at 70.5 h: -11.1%

====

# reported cytotoxicity at 70.5 h; entries follow
- assay_comment: Human HepG2 cell viability assay in 384 well format
- Format: toxicity, cell-based
- Parameters: dose 125 nL, time 70.5 hour; concentration not given beside the values
- condition_label: HepG2 cells, read-out: Inhibition

compound: CCOCC1c2c(ncn2C(C)C)CCN1C(=O)CC (stereo not given)
cytotoxicity at 70.5 h, %: 7.88
--
compound: Cc1cnn(CC2CCCN2Cc2nnc(-c3ccccc3)o2)c1 (stereo not given)
cytotoxicity at 70.5 h, %: -4.64
--
compound: Cc1cccc(C(=O)N2CC[C@]3(C[C@H](OCc4ccccn4)CO3)C2)c1
cytotoxicity at 70.5 h, %: 11.1
--
compound: CCS(=O)(=O)c1ccc(N2CCC(NC(=O)C3CCCCC3)CC2)cc1
cytotoxicity at 70.5 h, %: 0.314
--
compound: COc1ccc(F)cc1C(=O)N(C)Cc1cc(C)on1
cytotoxicity at 70.5 h, %: -15.7
--
compound: CC1c2ncc(Cn3cncn3)n2CCN1C(=O)c1cscn1 (stereo not given)
cytotoxicity at 70.5 h, %: 20.8
--
compound: O=C1NCC2=C1C(c1ccc(O)cc1)Nc1ccccc1N2 (stereo not given)
cytotoxicity at 70.5 h, %: -6.66
--
compound: CS(=O)(=O)CC(=O)N(CCN1CCOCC1)Cc1ccco1
cytotoxicity at 70.5 h, %: 22.7
--
compound: O=C(CCC1CCCC1)NCc1nnc2ccccn12
cytotoxicity at 70.5 h, %: -10.1
--
compound: Cc1ncc(CC(=O)N2CCC(N3C[C@@H](C)O[C@@H](C)C3)CC2)c(=O)[nH]1
cytotoxicity at 70.5 h, %: 9.33
--
compound: CNC(=O)c1cccc(CCNc2ccccn2)c1
cytotoxicity at 70.5 h, %: -0.207
--
compound: O=C(C1CCOc2ccccc21)N1CCOc2ccc(F)cc21 (stereo not given)
cytotoxicity at 70.5 h, %: -9.88
--
compound: COc1ccc(F)cc1S(=O)(=O)N1CCN(CCn2ccnc2)CC1
cytotoxicity at 70.5 h, %: -12.2
--
compound: CN(C)C(=O)c1cccc(CCNS(=O)(=O)c2ccccc2)c1
cytotoxicity at 70.5 h, %: -1.77
--
compound: Cn1nccc1-c1nnn2c1COCC(CNCC1CC1)C2 (stereo not given)
cytotoxicity at 70.5 h, %: -2.84
--
compound: Cc1nc(C)c(C(=O)NCCNC(=O)Cc2ccc(F)cc2)s1
cytotoxicity at 70.5 h, %: 10.7
--
compound: COCC(C)N(C)C(=O)NC1CCN(S(C)(=O)=O)CC1 (stereo not given)
cytotoxicity at 70.5 h, %: -6.45
--
compound: Cc1ccc(CN(C)C(=O)CCn2c(=O)n(C)c3ccccc32)o1
cytotoxicity at 70.5 h, %: -6.04
--
compound: Cc1nc(C)n(C2CCCN(C(=O)c3cc(C4CC4)on3)C2)n1 (stereo not given)
cytotoxicity at 70.5 h, %: 1.36
--
compound: CCn1ccnc1CN1CCN(c2nc(C)cc(OC)n2)CC1
cytotoxicity at 70.5 h, %: -9.98
--
compound: O=C(CCCc1ccccn1)N1CCC(n2cccc2)CC1
cytotoxicity at 70.5 h, %: -1.32
--
compound: CN(C)C(=O)c1cc(-c2ccc(S(C)(=O)=O)cc2)c2cnn(C)c2n1
cytotoxicity at 70.5 h, %: -7.12
--
compound: Cc1cnn(CCNCC(O)c2ccc3c(c2)OCCO3)c1 (stereo not given)
cytotoxicity at 70.5 h, %: 4.42
--
compound: CCC(Nc1nnnn1-c1ccccc1)C(=O)Nc1ccccc1C (stereo not given)
cytotoxicity at 70.5 h, %: -11
--
compound: O=C(O)C1(n2ccc(-c3ccco3)n2)CCN(Cc2cccs2)CC1
cytotoxicity at 70.5 h, %: 17.7
--
compound: Cc1cc(CN2CCN(c3ccc4nncn4n3)C(C)C2)on1 (stereo not given)
cytotoxicity at 70.5 h, %: 20
--
compound: O=C(c1cscn1)N1CCC2(COc3ncccc3S(=O)(=O)N2)C1 (stereo not given)
cytotoxicity at 70.5 h, %: -3.8
--
compound: CN1C(=O)CCc2cc(NC(=O)C3CC3)ccc21
cytotoxicity at 70.5 h, %: 10.6
--
compound: CC(C)(C)n1ncc2c1NC(=O)CC2c1ccc(C#N)cc1 (stereo not given)
cytotoxicity at 70.5 h, %: -10
--
compound: Cc1cc(C)nc(C2CCN(C(=O)c3c(C)noc3C)C2)n1 (stereo not given)
cytotoxicity at 70.5 h, %: -3.76
--
compound: CC(C)CN1C[C@@H]2CN(C(=O)[C@H]3CCCO3)C[C@@H]2C1=O
cytotoxicity at 70.5 h, %: -14.1
--
compound: Cc1cc(N2CCc3c(ncn3C)C2)n2nc(C(F)(F)F)nc2n1
cytotoxicity at 70.5 h, %: -105
--
compound: CN(C)CCNC(=O)[C@H]1C[C@@H]2CN(C(=O)NCc3ccccc3)C[C@H]1O2
cytotoxicity at 70.5 h, %: -14.9
--
compound: Cc1cc(C)c(CNC(=O)N(C)Cc2sccc2C)c(=O)[nH]1
cytotoxicity at 70.5 h, %: -10.7
--
compound: CC(=O)N1CCN(Cc2nnc(C(C)(C)C)o2)CC1
cytotoxicity at 70.5 h, %: -8.04
